Test system: Escherichia coli TOP10
Assay: shrunken log2 fold change of peptide-encoding DNA abundance (4.5 h post-induction vs induction); higher = less antimicrobial activity (less host growth inhibition)
Details: time post-induction: 4.5 h; library: site-saturation at positions 5, 18, 19, 20
value type: shrunken log2 fold change
Simply state the number, no unit and no words.

Per the records, this sequence ( "RRIRGRPPRLPRPRPRPGFFPRP" ) has shrunken log2 fold change equal to 0.542

---

System: Escherichia coli TOP10;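 also: peptides expressed intracellularly from a pBAD plasmid library in pooled LB shake-flask culture, induced with 0.3% L-arabinose, DNA abundance read by NGS, three biological replicates, DESeq2 with apeglm shrinkage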
Assay: shrunken log2 fold change of peptide-encoding DNA abundance (4.5 h post-induction vs induction); higher = less antimicrobial activity (less host growth inhibition)
Conditions: time post-induction: 4.5 h; library: site-saturation at positions 5, 18, 19, 20
We begin with a simple list: items and their reported shrunken log2 fold change.
Would you mind answering with just the numeric figure?

Take a look at these entries with their results.
{"seq string": "RRIRGRPPRLPRPRPRPSFRPRP", "value type": "shrunken log2 fold change", "val": 0.0601}
{"seq string": "RRIRWRPPRLPRPRPRPNVQPRP", "value type": "shrunken log2 fold change", "val": -0.0399}
{"seq string": "RRIRFRPPRLPRPRPRPMTHPRP", "value type": "shrunken log2 fold change", "val": -0.401}

Query "RRIRWRPPRLPRPRPRPGDNPRP" on Escherichia coli TOP10; shrunken log2 fold change returned: 0.106

shrunken log2 fold change value, target or system Escherichia coli TOP10, for "RRIRHRPPRLPRPRPRPLFLPRP" : -0.612

Log: Escherichia coli TOP10, sequence "RRIRTRPPRLPRPRPRPSMNPRP" , shrunken log2 fold change = -0.28

# value of shrunken log2 fold change, Escherichia coli TOP10, item "RRIRPRPPRLPRPRPRPIFQPRP" = 0.0149

Note to self: shrunken log2 fold change of "RRIRRRPPRLPRPRPRPATVPRP" with Escherichia coli TOP10 was -0.037

The recorded shrunken log2 fold change with Escherichia coli TOP10 for "RRIRFRPPRLPRPRPRPPKTPRP" was 0.0214

shrunken log2 fold change of "RRIRKRPPRLPRPRPRPWHSPRP" , assay on Escherichia coli TOP10, is 0.0422

Observed shrunken log2 fold change on Escherichia coli TOP10, entry "RRIRLRPPRLPRPRPRPEYEPRP" , equals 0.0712

Field shrunken log2 fold change (Escherichia coli TOP10), entry "RRIRTRPPRLPRPRPRPHFQPRP" : -0.294

Record "RRIRSRPPRLPRPRPRPMHFPRP" / Escherichia coli TOP10, shrunken log2 fold change recorded as 0.0521

Sample "RRIRERPPRLPRPRPRPFSFPRP" , system: Escherichia coli TOP10. Its shrunken log2 fold change is 0.122

shrunken log2 fold change for Escherichia coli TOP10 with input "RRIRKRPPRLPRPRPRPHRHPRP" equals 0.023
